Target: Inhibitor of nuclear factor kappa-B kinase subunit epsilon (Homo sapiens)
Sequence (Q14164 whole entry): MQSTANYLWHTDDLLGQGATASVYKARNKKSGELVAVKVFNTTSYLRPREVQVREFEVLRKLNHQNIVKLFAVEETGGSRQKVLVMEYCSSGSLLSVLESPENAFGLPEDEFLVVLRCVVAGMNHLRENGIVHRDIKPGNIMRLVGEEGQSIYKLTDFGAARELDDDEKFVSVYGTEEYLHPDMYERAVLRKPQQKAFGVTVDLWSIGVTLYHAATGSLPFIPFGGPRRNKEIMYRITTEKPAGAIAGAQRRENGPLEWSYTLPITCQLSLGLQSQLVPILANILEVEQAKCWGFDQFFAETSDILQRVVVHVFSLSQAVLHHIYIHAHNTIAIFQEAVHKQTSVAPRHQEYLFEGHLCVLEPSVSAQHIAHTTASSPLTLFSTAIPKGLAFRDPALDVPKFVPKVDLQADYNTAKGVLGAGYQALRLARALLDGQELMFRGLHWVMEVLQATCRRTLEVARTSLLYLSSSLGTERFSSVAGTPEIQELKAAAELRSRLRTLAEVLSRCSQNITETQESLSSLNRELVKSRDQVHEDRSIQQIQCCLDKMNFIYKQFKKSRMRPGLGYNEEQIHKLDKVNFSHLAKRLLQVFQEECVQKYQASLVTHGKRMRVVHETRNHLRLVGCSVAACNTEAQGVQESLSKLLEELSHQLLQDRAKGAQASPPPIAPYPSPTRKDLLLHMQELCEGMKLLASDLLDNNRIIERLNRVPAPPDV
Experiment: Inhibition of IKK-epsilon
Readout: IC50

1. NC(=O)c1cc(-c2ccccc2)cc2c(C3CCCNC3)c[nH]c12 (configuration not stated) :: > 3.16 µM

Record lookup: for Inhibitor of nuclear factor kappa-B kinase subunit epsilon (Homo sapiens), what IC50 belongs to CCCS(=O)(=O)N1CCC(c2c[nH]c3c(C(N)=O)cc(-c4ccccc4)cc23)CC1 ?
> 3.16 µM

###

Target: Inhibitor of nuclear factor kappa-B kinase subunit alpha (Homo sapiens, UniProt O15111)
Sequence (O15111 whole entry): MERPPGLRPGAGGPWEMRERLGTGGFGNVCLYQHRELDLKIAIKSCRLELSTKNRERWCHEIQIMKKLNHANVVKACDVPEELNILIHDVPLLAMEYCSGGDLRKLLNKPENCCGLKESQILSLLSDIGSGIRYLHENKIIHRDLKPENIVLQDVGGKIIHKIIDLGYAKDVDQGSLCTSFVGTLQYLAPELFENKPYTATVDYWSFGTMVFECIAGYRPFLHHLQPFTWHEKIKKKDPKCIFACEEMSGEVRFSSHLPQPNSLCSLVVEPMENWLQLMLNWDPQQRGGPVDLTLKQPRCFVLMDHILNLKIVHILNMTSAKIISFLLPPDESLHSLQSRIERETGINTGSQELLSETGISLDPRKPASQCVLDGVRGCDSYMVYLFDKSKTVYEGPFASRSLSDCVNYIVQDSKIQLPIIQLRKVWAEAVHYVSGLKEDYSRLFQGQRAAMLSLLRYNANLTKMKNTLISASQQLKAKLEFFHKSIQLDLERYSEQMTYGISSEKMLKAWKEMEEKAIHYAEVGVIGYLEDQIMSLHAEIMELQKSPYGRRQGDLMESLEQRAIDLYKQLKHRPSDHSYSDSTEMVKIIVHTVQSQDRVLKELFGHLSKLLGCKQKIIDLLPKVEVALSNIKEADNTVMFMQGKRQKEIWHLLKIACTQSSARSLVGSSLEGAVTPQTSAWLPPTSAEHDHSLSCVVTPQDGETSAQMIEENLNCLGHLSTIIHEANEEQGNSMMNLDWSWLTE
Assay: Inhibition of IKK-alpha
Readout: IC50 (µM)
The reply should contain only the number, in µM.

The cases that follow already have their IC50 on record.
1. CCCS(=O)(=O)N1CCC(c2c[nH]c3c(C(N)=O)cc(-c4ccccc4)cc23)CC1 :: 2
2. COc1ccncc1-c1cc(C(N)=O)c2[nH]ccc2c1 :: 12.6
3. NC(=O)c1cc(-c2cccc(Cl)c2)cc2cc[nH]c12 :: 5.01
4. NC(=O)c1cc(-c2cncnc2)cc2cc[nH]c12 :: 15.8
5. CCS(=O)(=O)N1CCC(c2c[nH]c3c(C(N)=O)cc(-c4ccccc4)cc23)CC1 :: 2

// next entry
Need IC50, item N#Cc1cccc(-c2cc(C(N)=O)c3[nH]ccc3c2)c1
10

###

Target: Inhibitor of nuclear factor kappa-B kinase subunit beta (Homo sapiens)
Assay: Inhibition of IKK-beta in human A549 cells assessed as TNF-alpha-induced Nuclear factor-kappa-B nuclear translocation
Readout: IC50 (nM)
The reply should contain only the number, in nM.

Need IC50, item CCCS(=O)(=O)N1CCC(c2c[nH]c3c(C(N)=O)cc(-c4ccccc4)cc23)CC1
158

###

Measured IC50, listed per entry.
Biological target: Inhibitor of nuclear factor kappa-B kinase subunit beta (Homo sapiens, UniProt O14920)
Sequence (O14920 whole entry): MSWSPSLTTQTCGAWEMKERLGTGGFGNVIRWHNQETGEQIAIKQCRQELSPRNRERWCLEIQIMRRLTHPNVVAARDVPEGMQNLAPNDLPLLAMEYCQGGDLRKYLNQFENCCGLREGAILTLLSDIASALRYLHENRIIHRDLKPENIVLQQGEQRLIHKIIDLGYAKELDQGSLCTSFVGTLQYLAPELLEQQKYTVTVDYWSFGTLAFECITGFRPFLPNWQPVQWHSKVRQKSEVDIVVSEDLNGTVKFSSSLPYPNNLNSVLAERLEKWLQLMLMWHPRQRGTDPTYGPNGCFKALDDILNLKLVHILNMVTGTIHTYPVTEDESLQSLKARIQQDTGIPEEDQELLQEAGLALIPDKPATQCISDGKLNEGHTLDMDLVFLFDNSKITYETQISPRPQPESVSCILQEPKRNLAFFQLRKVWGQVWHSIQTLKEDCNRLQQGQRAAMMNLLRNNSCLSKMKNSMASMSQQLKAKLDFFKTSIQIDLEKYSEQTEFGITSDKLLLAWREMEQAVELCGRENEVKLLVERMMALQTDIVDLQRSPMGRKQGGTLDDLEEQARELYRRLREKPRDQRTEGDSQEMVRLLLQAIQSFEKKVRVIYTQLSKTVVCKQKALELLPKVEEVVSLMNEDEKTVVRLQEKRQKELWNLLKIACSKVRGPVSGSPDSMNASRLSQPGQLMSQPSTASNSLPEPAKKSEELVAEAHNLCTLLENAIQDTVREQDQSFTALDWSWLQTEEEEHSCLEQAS
Assay: Inhibition of IKK-beta
The reply should contain only the number, in µM.

Record lookup: for Inhibitor of nuclear factor kappa-B kinase subunit beta (Homo sapiens, UniProt O14920), what IC50 belongs to NC(=O)c1cc(-c2ccc(CO)cc2)cc2cc[nH]c12 ?
1.26

For NC(=O)c1cc(Br)cc2c3c([nH]c12)CCCC3 then?
2.51

For NC(=O)c1cc(-c2ccccc2)cc2c(C3CCCNC3)c[nH]c12 (stereo not given) then?
0.158

For NC(=O)c1cc(-c2ccccc2)cc2c(C3CCNCC3)c[nH]c12 then?
0.501

Just for reference, ChEMBL document CHEMBL1759890 is where these values come from.
